Reference source: patent US11401236B2

measuredProperty: melting point

Example results:
>  <compound>
CC(CCC(N)=O)c1ccc(O)cc1O (centres unmarked) [Compound 10, 4-(2,4-dihydroxyphenyl)pentanamide]

>  <melting point>
54 to 56 °C

$$$$
>  <compound>
CC(CCC(=O)N[C@H](C)C(=O)O)c1ccc(O)cc1O (some centres unmarked)

>  <melting point>
65 to 68 °C

$$$$
>  <compound>
COCCN(CCOC)C(=O)CCC(C)c1ccc(O)cc1O (centres unmarked)

>  <melting point>
78 to 81 °C

$$$$
>  <compound>
CC(CCC(=O)NCC(=O)O)c1ccc(O)cc1O (centres unmarked)

>  <melting point>
59 to 65 °C

$$$$

Quick request: melting point for each listed item, please.
1. CCOC(=O)[C@H](Cc1ccccc1)NC(=O)CCC(C)c1ccc(O)cc1O (some centres unmarked)
2. CCOC(=O)[C@H](C)NC(=O)CCC(C)c1ccc(O)cc1O (some centres unmarked)

Result ::
1: 51 to 59 °C; 2: 48 to 50 °C

Quick request: melting point for each listed item, please.
1. COC(=O)[C@H](CC(C)C)NC(=O)CCC(C)c1ccc(O)cc1O (some centres unmarked)
2. CC(CCC(=O)NC1CCCCC1)c1ccc(O)cc1O (centres unmarked)

Result ::
1: 63 °C; 2: 75 to 78 °C
